Target: T1, DR4G99: Human HLA-DRA1*01:02/DRB1*01:01 ECD with collagen peptide CII_1236-1249 (human)
T1 construct: also called DRG99
Experiment: MSD ECL; antigen coated; protocol of Example 3;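 note: antibodies tested at 0.04–5 µg/ml on plate-coated soluble HLA-DR carrying peptide on the beta chain N-terminus, bound antibody detected by SulfoTag anti-human kappa secondary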
measurement.label: ECL signal (ECL)
Answers are plain numbers, in ECL.

For orientation, consider the following solved cases.
{"binder": "DR4B6 (antibody, V domains shown, also called L243 re-engineered as IgG2sigma) VH: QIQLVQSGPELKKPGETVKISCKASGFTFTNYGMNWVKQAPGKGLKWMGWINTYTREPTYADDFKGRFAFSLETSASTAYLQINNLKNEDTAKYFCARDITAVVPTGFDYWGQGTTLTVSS VL: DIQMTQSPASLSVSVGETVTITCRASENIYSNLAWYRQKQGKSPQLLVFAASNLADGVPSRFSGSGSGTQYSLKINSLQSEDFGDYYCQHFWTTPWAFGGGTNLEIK", "ECL signal / ECL": 672000}
{"binder": "DR4B98 (antibody, human IgG2, kappa, V domains shown, also called VH DR4H50 / VL PH9L3) VH: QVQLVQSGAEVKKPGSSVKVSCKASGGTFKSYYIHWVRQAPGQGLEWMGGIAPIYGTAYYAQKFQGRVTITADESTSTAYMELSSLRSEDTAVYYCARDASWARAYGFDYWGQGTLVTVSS VL: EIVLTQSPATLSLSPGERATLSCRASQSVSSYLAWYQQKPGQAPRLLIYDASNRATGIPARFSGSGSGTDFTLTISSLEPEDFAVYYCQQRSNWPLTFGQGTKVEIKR", "ECL signal / ECL": 10000}
{"binder": "DR4B5 (antibody, V domains shown, also called apolizumab (1D10) re-engineered as IgG2sigma) VH: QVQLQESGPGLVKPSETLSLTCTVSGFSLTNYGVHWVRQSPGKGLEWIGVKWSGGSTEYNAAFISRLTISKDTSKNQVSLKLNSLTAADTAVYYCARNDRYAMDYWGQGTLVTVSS VL: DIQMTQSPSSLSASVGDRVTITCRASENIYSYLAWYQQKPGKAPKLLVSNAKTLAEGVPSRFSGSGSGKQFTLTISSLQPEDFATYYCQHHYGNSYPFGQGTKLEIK", "ECL signal / ECL": 45900}

Let's switch to this binder now.
What value of measured ECL signal is listed for DR4B127 (antibody, human IgG2, kappa, V domains shown, also called VH DR4H7 / VL PH9L3) VH: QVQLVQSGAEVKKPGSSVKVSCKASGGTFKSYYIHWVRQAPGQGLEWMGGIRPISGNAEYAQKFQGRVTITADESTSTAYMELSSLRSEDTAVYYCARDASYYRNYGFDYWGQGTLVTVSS VL: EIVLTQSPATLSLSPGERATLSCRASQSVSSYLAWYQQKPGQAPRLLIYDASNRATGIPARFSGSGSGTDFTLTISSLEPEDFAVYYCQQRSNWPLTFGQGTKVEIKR ? 882000

Recorded values, source patent US20180355043A1.
